system: beta-arrestin 1 peptide binding to AP-2 beta2-adaptin appendage (human); test: inhibitors of arrestin peptide binding to AP2, dose response, biochemical, cherry pick 1, beta2-adaptin appendage, flow cytometry (AID 588783); conditions: Bead flow cytometry, FITC-arrestin peptide binding GST-AP2; at 9.12 µM; active compounds read high
Entries with a potency or affinity are not part of this list.
# key: entry, value: inhibition of specific binding
Parameter: inhibition of specific binding (%)

molecule="O=C(NCC1COc2ccccc2O1)c1ccc(NC(=O)C(c2ccccc2)c2ccccc2)cc1 (centres undefined)" parameter="inhibition of specific binding" unit_abbrev=% reading=7
molecule=COc1cc(C2Nc3cccc4cccc(c34)N2)cc(OC)c1O parameter="inhibition of specific binding" unit_abbrev=% reading=12
molecule="Cc1nn(-c2ccccn2)c2c1C(c1ccsc1)C1=C(CCCC1=O)N2 (centres undefined)" parameter="inhibition of specific binding" unit_abbrev=% reading=12
molecule=COC(=O)c1ccccc1N/C=C1\CCc2c(c(C)nn2-c2ccccn2)C1=O parameter="inhibition of specific binding" unit_abbrev=% reading=7
